Hello, the source for this data is patent US20090203901A1, in case you need it.

Measured melting point accompanies every entry in the list below.

Answered cases to consult:
- COMPOUND: "COc1cc(N)c(C(=O)c2ccccc2Cl)cc1F [Example 3a]"
  OUTCOME MEASURE: "melting point"
  REPORTED RESULT: "130.5 to 132.5 °C"
- COMPOUND: "C=CCNc1cc(OC)c(F)cc1C(=O)c1ccccc1Cl [Example 9]"
  OUTCOME MEASURE: "melting point"
  REPORTED RESULT: "125 to 127 °C"
- COMPOUND: "COc1cc(NC(=O)CBr)c(C(=O)c2ccccc2Cl)cc1F"
  OUTCOME MEASURE: "melting point"
  REPORTED RESULT: "177 to 178 °C"
- COMPOUND: "COc1cc2c(cc1F)C(c1ccccc1Cl)=NCC(=O)N2"
  OUTCOME MEASURE: "melting point"
  REPORTED RESULT: "210 to 212.5 °C"
- COMPOUND: "COc1cc(NCc2ccccc2)c(C(=O)c2ccccc2Cl)cc1F [Example 2]"
  OUTCOME MEASURE: "melting point"
  REPORTED RESULT: "122 to 124 °C"

Requested field: melting point. Item: COc1cc(F)c(C(=O)c2ccccc2Cl)cc1F [Example 1]
84 to 85 °C
